- TEST_DESCRIPTION: Pharmacokinetic phase: plasma exposure after oral dosing in non-infected PXB mice
- Assay type: in vivo
- ASSAY_CONTEXT: PXB, mouse, plasma, po, 10 mg/kg, non-infected PXB mice, 10 mg/kg p.o., 24 h, mean of 3 animals; read-out: Plasma conc. Mean ± SD
- Protocol: Thirty microliters (30 μL) of blood were collected from all animals under isoflurane anesthesia via the retro-orbital plexus/sinus using sodium heparin-coated calibrated pipettes according to the collection schedule shown in Table 7. […] The plasma exposure of Compound 1 from the pharmacokinetic phase was measured via LC/MS- MS. The lower limit of quantitation was 1 ng/mL.
MEASURED_QUANTITY: concentration at 24 h (ng/mL)
Response body: numeric value in ng/mL, unit text excluded.

Exercise: I would be grateful if you could share the reported concentration at 24 h for CCCCC1CN(c2ccccc2)c2cc(SC)c(O/C=C(\F)C(=O)O)cc2S(=O)(=O)N1C (stereo not shown) .
Key: 18
